Target: T1, human PD-1 (soluble analyte in SPR) (human, UniProt Q15116 25-170, limits assumed)
T1 construct: also called CD279; PDCD1
T1 sequence (Q15116 25-170 limits assumed): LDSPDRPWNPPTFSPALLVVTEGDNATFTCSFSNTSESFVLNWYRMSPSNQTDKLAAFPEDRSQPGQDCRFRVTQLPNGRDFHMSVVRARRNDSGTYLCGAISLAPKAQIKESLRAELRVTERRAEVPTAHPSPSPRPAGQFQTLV
Assay: SPR (ProteOn XPR36), mAb captured on anti-human IgG Fc, human PD-1 as analyte, 25 C
measured metric: pKd
// pKd here means minus log10 of the molar concentration (mol/L)

Inquiry: Specify pKd for PD1B1091 (antibody, human IgG1, kappa, V domains shown, also called VH PD1H586; VL PD1L651) VH: QVQLVQSGSELKKPGASVKVSCKASGYTFTDYSMHWVRQAPGQGLEWMGWINIETGHPTYAQGFTGRFVFSLDTSVSTAYLQISSLKAEDTAVYFCARDYYGTYFYAMDYWGQGTLVTVSS VL: EIVLTQSPATLSLSPGERATLSCTASSSFSSSYLHWYQQKPGLAPRLLIYSTSNLASGIPDRFSGSGSGTDYTLTISRLEPEDFAVYYCHQYHRSPLTFGQGTKLEIKR and stop.
Reply text: 9.08

Inquiry: Determine from records and report pKd for PD1B1089 (antibody, human IgG1, kappa, V domains shown, also called VH PD1H405; VL PD1L652) VH: QVQLVQSGSELKKPGASVKVSCKASGYTFTDYSMHWVRQAPGQGLEWMGWINIETGEPTYAQGFTGRFVFSLDTSVSTAYLQISSLKAEDTAVYFCARDYYGTYFYAMDYWGQGTLVTVSS VL: EIVLTQSPATLSLSPGERATLSCTASSSVPSSYLHWYQQKPGLAPRLLIYSTSNLASGIPDRFSGSGSGTDYTLTISRLEPEDFAVYYCHQYHRSPLTFGQGTKLEIKR
Reply text: 8.09
